Each recorded value in this set is attributed to the supplement of paper PMC10307832.

Test system: EBC-1
TEST DESCRIPTION: relative viability (nuclei count vs DMSO), 5 days (fraction); higher = more cells survive
CONDITION INFO: first compound 2.53 µM
Could you please mark Y for values of relative viability below 0.7 and N for values at or above it?

O=c1cc(-c2cccc3c2Sc2ccccc2S3)oc(N2CCOCC2)c1 + Cc1nc(NC(=O)N2CCC[C@H]2C(N)=O)sc1-c1ccnc(C(C)(C)C(F)(F)F)c1 [Alpelisib] (partner 2 µM): N

Criterion: relative viability strictly below 0.7. Is it met by COc1nc(C)cnc1NS(=O)(=O)c1cccnc1-c1ccc(-c2nnco2)cc1 [Zibotentan] + C[C@@H](Oc1cc(-c2cnn(C3CCNCC3)c2)cnc1N)c1c(Cl)ccc(F)c1Cl [Crizotinib] (partner 1 µM) ?
Y

Criterion: relative viability strictly below 0.7. Is it met by COc1nc(C)cnc1NS(=O)(=O)c1cccnc1-c1ccc(-c2nnco2)cc1 [Zibotentan] + O=C(c1cc(Cc2n[nH]c(=O)c3ccccc23)ccc1F)N1CCN(C(=O)C2CC2)CC1 [Olaparib] (partner 8 µM) ?
Y

Criterion: relative viability strictly below 0.7. Is it met by COc1nc(C)cnc1NS(=O)(=O)c1cccnc1-c1ccc(-c2nnco2)cc1 [Zibotentan] + CC1(C)CCC(c2ccc(Cl)cc2)=C(CN2CCN(c3ccc(C(=O)NS(=O)(=O)c4ccc(N[C@H](CCN5CCOCC5)CSc5ccccc5)c(S(=O)(=O)C(F)(F)F)c4)cc3)CC2)C1 [Navitoclax] (partner 0.5 µM) ?
Y

Criterion: relative viability strictly below 0.7. Is it met by O=c1cc(-c2cccc3c2Sc2ccccc2S3)oc(N2CCOCC2)c1 + O=C(c1cc(Cc2n[nH]c(=O)c3ccccc23)ccc1F)N1CCN(C(=O)C2CC2)CC1 [Olaparib] (partner 8 µM) ?
Y

Criterion: relative viability strictly below 0.7. Is it met by COc1nc(C)cnc1NS(=O)(=O)c1cccnc1-c1ccc(-c2nnco2)cc1 [Zibotentan] + COc1cc2c(Oc3ccc(NC(=O)C4(C(=O)Nc5ccc(F)cc5)CC4)cc3F)ccnc2cc1OCCCN1CCOCC1 [Foretinib] (partner 0.25 µM) ?
Y

====

Tested on: NCI-H2405
TEST DESCRIPTION: relative viability (nuclei count vs DMSO), 5 days (fraction); higher = more cells survive
CONDITION INFO: first compound 2.53 µM
MEASURE NAME: relative viability
// no unit string in output, number only

O=c1cc(-c2cccc3c2Sc2ccccc2S3)oc(N2CCOCC2)c1 + CS(=O)(=O)CCNCc1ccc(-c2ccc3ncnc(Nc4ccc(OCc5cccc(F)c5)c(Cl)c4)c3c2)o1 [Lapatinib] (partner 2 µM): 0.937
COc1nc(C)cnc1NS(=O)(=O)c1cccnc1-c1ccc(-c2nnco2)cc1 [Zibotentan] + CC(=O)Nc1cccc(-n2c(=O)n(C3CC3)c(=O)c3c(Nc4ccc(I)cc4F)n(C)c(=O)c(C)c32)c1 [Trametinib] (partner 0.02 µM): 0.657
O=c1cc(-c2cccc3c2Sc2ccccc2S3)oc(N2CCOCC2)c1 + Nc1ncn([C@H]2C[C@H](O)[C@@H](CO)O2)c(=O)n1 [Decitabine] (partner 2 µM): 0.695
COc1nc(C)cnc1NS(=O)(=O)c1cccnc1-c1ccc(-c2nnco2)cc1 [Zibotentan] + COc1cc2c(Oc3ccc(NC(=O)C4(C(=O)Nc5ccc(F)cc5)CC4)cc3F)ccnc2cc1OCCCN1CCOCC1 [Foretinib] (partner 0.25 µM): 1.05

Reading of relative viability for O=c1cc(-c2cccc3c2Sc2ccccc2S3)oc(N2CCOCC2)c1 + Nc1nc2[nH]cc(CCc3ccc(C(=O)N[C@@H](CCC(=O)O)C(=O)O)cc3)c2c(=O)[nH]1 [Pemetrexed] (partner 0.2 µM) with NCI-H2405: 0.83

Reading of relative viability for COc1nc(C)cnc1NS(=O)(=O)c1cccnc1-c1ccc(-c2nnco2)cc1 [Zibotentan] + Cc1nc(NC(=O)N2CCC[C@H]2C(N)=O)sc1-c1ccnc(C(C)(C)C(F)(F)F)c1 [Alpelisib] (partner 2 µM) with NCI-H2405: 0.948

Reading of relative viability for O=c1cc(-c2cccc3c2Sc2ccccc2S3)oc(N2CCOCC2)c1 + O=C(CCCCCCC(=O)Nc1ccccc1)NO [Vorinostat] (partner 1 µM) with NCI-H2405: 0.842

====

System: PC-3 [JPC-3]
TEST DESCRIPTION: relative viability (nuclei count vs DMSO), 5 days (fraction); higher = more cells survive
CONDITION INFO: first compound 0.8 µM
MEASURE NAME: relative viability

COc1nc(C)cnc1NS(=O)(=O)c1cccnc1-c1ccc(-c2nnco2)cc1 [Zibotentan] + Cc1cc(Nc2cc(N3CCN(C)CC3)nc(Sc3ccc(NC(=O)C4CC4)cc3)n2)n[nH]1 [Tozasertib] (partner 0.1 µM): 0.853

Turning now to a further record.
Reading of relative viability for COc1nc(C)cnc1NS(=O)(=O)c1cccnc1-c1ccc(-c2nnco2)cc1 [Zibotentan] + COc1cc2c(Oc3ccc(NC(=O)C4(C(=O)Nc5ccc(F)cc5)CC4)cc3F)ccnc2cc1OCCCN1CCOCC1 [Foretinib] (partner 0.25 µM) with PC-3 [JPC-3]: 1.03

====

System: EPLC-272H
TEST DESCRIPTION: relative viability (nuclei count vs DMSO), 5 days (fraction); higher = more cells survive
CONDITION INFO: first compound 1 µM
MEASURE NAME: relative viability
// no unit string in output, number only

O=c1cc(N2CCOCC2)oc2c(-c3cccc4c3sc3ccccc34)cccc12 + COc1cc2c(Oc3ccc(NC(=O)C4(C(=O)Nc5ccc(F)cc5)CC4)cc3F)ccnc2cc1OCCCN1CCOCC1 [Foretinib] (partner 0.25 µM): 0.688
CCN(CC)CCCCNc1ncc2cc(-c3cc(OC)cc(OC)c3)c(NC(=O)NC(C)(C)C)nc2n1 + CC(C)C[C@H](NC(=O)[C@H](Cc1ccccc1)NC(=O)c1cnccn1)B(O)O [Bortezomib] (partner 0.002 µM): 0.796
CCN(CC)CCCCNc1ncc2cc(-c3cc(OC)cc(OC)c3)c(NC(=O)NC(C)(C)C)nc2n1 + CS(=O)(=O)N1CCN(Cc2cc3nc(-c4cccc5[nH]ncc45)nc(N4CCOCC4)c3s2)CC1 [Pictilisib] (partner 1 µM): 0.184
O=c1cc(N2CCOCC2)oc2c(-c3cccc4c3sc3ccccc34)cccc12 + CC(=O)Nc1cccc(-n2c(=O)n(C3CC3)c(=O)c3c(Nc4ccc(I)cc4F)n(C)c(=O)c(C)c32)c1 [Trametinib] (partner 0.02 µM): 0.279
CCN(CC)CCCCNc1ncc2cc(-c3cc(OC)cc(OC)c3)c(NC(=O)NC(C)(C)C)nc2n1 + COc1cc2c(Oc3ccc(NC(=O)C4(C(=O)Nc5ccc(F)cc5)CC4)cc3F)ccnc2cc1OCCCN1CCOCC1 [Foretinib] (partner 0.25 µM): 0.644
CCN(CC)CCCCNc1ncc2cc(-c3cc(OC)cc(OC)c3)c(NC(=O)NC(C)(C)C)nc2n1 + O=C(c1cc(Cc2n[nH]c(=O)c3ccccc23)ccc1F)N1CCN(C(=O)C2CC2)CC1 [Olaparib] (partner 8 µM): 0.488

Recorded relative viability (molecule CCN(CC)CCCCNc1ncc2cc(-c3cc(OC)cc(OC)c3)c(NC(=O)NC(C)(C)C)nc2n1 + CC1(C)CCC(c2ccc(Cl)cc2)=C(CN2CCN(c3ccc(C(=O)NS(=O)(=O)c4ccc(N[C@H](CCN5CCOCC5)CSc5ccccc5)c(S(=O)(=O)C(F)(F)F)c4)cc3)CC2)C1 [Navitoclax] (partner 0.5 µM) ): 0.995

Recorded relative viability (molecule O=c1cc(N2CCOCC2)oc2c(-c3cccc4c3sc3ccccc34)cccc12 + Cc1nc(Nc2ncc(C(=O)Nc3c(C)cccc3Cl)s2)cc(N2CCN(CCO)CC2)n1 [Dasatinib] (partner 0.075 µM) ): 0.263

Recorded relative viability (molecule O=c1cc(N2CCOCC2)oc2c(-c3cccc4c3sc3ccccc34)cccc12 + Nc1ncn([C@H]2C[C@H](O)[C@@H](CO)O2)c(=O)n1 [Decitabine] (partner 2 µM) ): 0.376

====

System: HOP-62
TEST DESCRIPTION: relative viability (nuclei count vs DMSO), 5 days (fraction); higher = more cells survive
CONDITION INFO: first compound 0.08 µM
Could you please mark y for values of relative viability below 0.8 and n for values at or above it?

Example entries begin here.
O=c1cc(-c2cccc3c2Sc2ccccc2S3)oc(N2CCOCC2)c1 + Cc1nc(NC(=O)N2CCC[C@H]2C(N)=O)sc1-c1ccnc(C(C)(C)C(F)(F)F)c1 [Alpelisib] (partner 2 µM): n
O=c1cc(-c2cccc3c2Sc2ccccc2S3)oc(N2CCOCC2)c1 + CC1(C)CCC(c2ccc(Cl)cc2)=C(CN2CCN(c3ccc(C(=O)NS(=O)(=O)c4ccc(N[C@H](CCN5CCOCC5)CSc5ccccc5)c(S(=O)(=O)C(F)(F)F)c4)cc3)CC2)C1 [Navitoclax] (partner 0.5 µM): n
COc1nc(C)cnc1NS(=O)(=O)c1cccnc1-c1ccc(-c2nnco2)cc1 [Zibotentan] + CS(=O)(=O)N1CCN(Cc2cc3nc(-c4cccc5[nH]ncc45)nc(N4CCOCC4)c3s2)CC1 [Pictilisib] (partner 1 µM): y
O=c1cc(-c2cccc3c2Sc2ccccc2S3)oc(N2CCOCC2)c1 + O=C(c1cc(Cc2n[nH]c(=O)c3ccccc23)ccc1F)N1CCN(C(=O)C2CC2)CC1 [Olaparib] (partner 8 µM): y

Criterion: relative viability strictly below 0.8. Is it met by COc1nc(C)cnc1NS(=O)(=O)c1cccnc1-c1ccc(-c2nnco2)cc1 [Zibotentan] + CS(=O)(=O)CCNCc1ccc(-c2ccc3ncnc(Nc4ccc(OCc5cccc(F)c5)c(Cl)c4)c3c2)o1 [Lapatinib] (partner 2 µM) ?
n

Criterion: relative viability strictly below 0.8. Is it met by O=c1cc(-c2cccc3c2Sc2ccccc2S3)oc(N2CCOCC2)c1 + Nc1ncn([C@H]2C[C@H](O)[C@@H](CO)O2)c(=O)n1 [Decitabine] (partner 2 µM) ?
y

Criterion: relative viability strictly below 0.8. Is it met by COc1nc(C)cnc1NS(=O)(=O)c1cccnc1-c1ccc(-c2nnco2)cc1 [Zibotentan] + CC(C)C[C@H](NC(=O)[C@H](Cc1ccccc1)NC(=O)c1cnccn1)B(O)O [Bortezomib] (partner 0.002 µM) ?
y

Criterion: relative viability strictly below 0.8. Is it met by COc1nc(C)cnc1NS(=O)(=O)c1cccnc1-c1ccc(-c2nnco2)cc1 [Zibotentan] + COc1cccc2cc(-c3nc([C@H]4CC[C@H](C(=O)O)CC4)n4ncnc(N)c34)[nH]c12 [OSI-027] (partner 0.5 µM) ?
n
